B1: Ankyrin repeat and SOCS box protein 14, residues 532 to 572; numbered along this chain, A6NK59 (parent)
chain: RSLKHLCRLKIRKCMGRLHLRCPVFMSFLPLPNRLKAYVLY

Variants of: B1
Test: abundance fitness (aPCA) (normalised: wild type 0, dead -1); higher = more abundant; growth selection in yeast, the domain comes from the species named
Conditions: Homo sapiens
Rule: abundance fitness of -0.002 or more gives fulfilled; anything lower gives not fulfilled.

Observe how each entry below is paired with its result.
RSLKHLCRLKIRKCMGRLHLRCPVFMSFLPLWNRLKAYVLY [P32W] : fulfilled
RLLKHLCRLKIRKCMGRLHLRCPVFMSFLPLPNRLKAYVLY [S2L] : fulfilled
RSLKHLCRLKIRKCMGRCHLRCPVFMSFLPLPNRLKAYVLY [L18C] : not fulfilled
RSLKHLCRLKIRKCMGRGHLRCPVFMSFLPLPNRLKAYVLY [L18G] : not fulfilled
RSLKHLCRLKIRKCMGRLHLRCPVQMSFLPLPNRLKAYVLY [F25Q] : not fulfilled

Say whether RSLKHLCRLKIRKCMGRQHLRCPVFMSFLPLPNRLKAYVLY [L18Q] shows abundance fitness of -0.002 or more.
not fulfilled

Say whether RSLKHLCRLKIRKCMGRLHLRCPVPMSFLPLPNRLKAYVLY [F25P] shows abundance fitness of -0.002 or more.
fulfilled

Say whether RSLKHLCRLKIRKCMGRLHLRCPVFMSFLPLANRLKAYVLY [P32A] shows abundance fitness of -0.002 or more.
fulfilled

Say whether RSLKHQCRLKIRKCMGRLHLRCPVFMSFLPLPNRLKAYVLY [L6Q] shows abundance fitness of -0.002 or more.
fulfilled

Say whether RSLKHLCRLKIRKCMGRLHLRCPVFMSFLPLPNRLWAYVLY [K36W] shows abundance fitness of -0.002 or more.
not fulfilled

Say whether RSLKHLCRLKIRKCRGRLHLRCPVFMSFLPLPNRLKAYVLY [M15R] shows abundance fitness of -0.002 or more.
not fulfilled

Say whether RSLKHLCRLTIRKCMGRLHLRCPVFMSFLPLPNRLKAYVLY [K10T] shows abundance fitness of -0.002 or more.
fulfilled

Say whether RSLKHLRRLKIRKCMGRLHLRCPVFMSFLPLPNRLKAYVLY [C7R] shows abundance fitness of -0.002 or more.
not fulfilled
